Data provenance: patent US20240209076A1

biological target: T1, human IL-6 (human, UniProt P05231 30-212); experiment: SPR Biacore, supernatant Ab on Protein A chip, 37 C
T1 construct: IL-6 flowed over captured antibodies
T1 sequence (P05231 30-212 limits assumed): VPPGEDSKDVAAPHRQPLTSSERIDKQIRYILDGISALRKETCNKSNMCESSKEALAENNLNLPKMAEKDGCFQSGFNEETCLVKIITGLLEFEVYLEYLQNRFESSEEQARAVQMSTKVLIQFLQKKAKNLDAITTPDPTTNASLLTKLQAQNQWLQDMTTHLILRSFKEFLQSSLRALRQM
Listed next: entries and their corresponding pKd.
The value called pKd is obtained by taking minus log10 of the concentration in mol/L.

binder	pKd
anti-IL-6 antibody, heavy chain T63Y, G66D / light chain M32L, M50D, N52S, M88Q (antibody, IgG1, V domains shown, Full IgG1 (Expi293); VL = variant III) VH: EVQLVESGGGLVQPGGSLRLSCAASGFTFSPFAMSWVRQAPGKGLEWVAKISPGGSWTYYSDYVTDRFTFSLDTSKSTAYLQMNSLRAEDTAVYYCARQLWGYYALDIWGQGTLVTVSS VL: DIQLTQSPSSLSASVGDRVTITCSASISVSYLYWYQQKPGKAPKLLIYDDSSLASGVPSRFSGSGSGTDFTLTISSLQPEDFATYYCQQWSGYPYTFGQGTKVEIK	9.62

Here's the next entry for you.
// query Quick one: pKd of anti-IL-6 antibody, heavy chain S35W, G66D / light chain M32L, M50D, N52S, M88Q (antibody, IgG1, V domains shown, Full IgG1 (Expi293); VL = variant III) VH: EVQLVESGGGLVQPGGSLRLSCAASGFTFSPFAMWWVRQAPGKGLEWVAKISPGGSWTYYSDTVTDRFTFSLDTSKSTAYLQMNSLRAEDTAVYYCARQLWGYYALDIWGQGTLVTVSS VL: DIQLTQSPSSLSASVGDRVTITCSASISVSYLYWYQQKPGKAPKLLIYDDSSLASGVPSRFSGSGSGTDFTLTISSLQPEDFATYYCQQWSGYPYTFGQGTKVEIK ?
// result 7.46
